Assay: qHTS Screen of the MIPE 4.0 Collection Against Ewings Sarcoma (EW8) (AID 1259255); note: nearly all actives have a fitted effect of over 35% in size
Details: EW8 Ewing sarcoma viability, CellTiter-Glo, 48 h; series mostly up to 45.8 µM
Results filed as inconclusive are left out. Activity calls are given as the source filed them. Calls come from the whole dose curve; as a rule, active = well fitted inhibition curve with a large enough effect; inconclusive = small, poorly fitted or top-dose-only effect; inactive = no such curve, though single readings can be large or run the other way.
// allowed return values: active, inactive

Problem: Dear all, I need the recorded test outcome for COc1ccc2c(c1)c(CC(=O)OCC(=O)O)c(C)n2C(=O)c1ccc(Cl)cc1 , thank you.
Result: inactive

Problem: Dear all, I need the recorded test outcome for O=C(O)c1cn(C2CC2)c2cc(N3CCNCC3)c(F)cc2c1=O , thank you.
Result: inactive

Problem: Dear all, I need the recorded test outcome for CCCOc1ccc(C(=O)OCCN(CC)CC)cc1N , thank you.
Result: inactive

Problem: Dear all, I need the recorded test outcome for CCN[C@H]1C[C@H](C)S(=O)(=O)c2sc(S(N)(=O)=O)cc21 , thank you.
Result: inactive

Problem: Dear all, I need the recorded test outcome for Cn1nnc2c(C(N)=O)ncn2c1=O , thank you.
Result: inactive

Problem: Dear all, I need the recorded test outcome for COC(=O)Nc1nc2ccc(C(=O)c3ccccc3)cc2[nH]1 , thank you.
Result: active

----------
Assay: Quantitative High-Throughput drug screen in 47 multiple myeloma cell lines against the NCATS MIPE library collection: KMS11_JCRBsus cell viability assay (AID 1919873); note: nearly all actives have a fitted effect of over 50% in size; note: potency is the fitted concentration of half-maximal effect
Details: KMS11 myeloma viability, CellTiter-Glo ATP luminescence, 48 h; series mostly up to 45.8 µM
Inconclusive results are not listed. The source made the active and inactive calls. Calls come from the whole dose curve; as a rule, active = well fitted cell-killing curve with a large enough effect; inconclusive = small, poorly fitted or top-dose-only effect, or effect the other way; inactive = no such curve, though single readings can be large or run the other way.
assay.readout: Potency

1. OCc1ccc(-c2nn(Cc3ccccc3)c3ccccc23)o1
inactive
2. CC1=CC(=O)c2ccccc2C1=O
18.7 µM (active)
3. CCN1CCCC1CNC(=O)c1cc(S(N)(=O)=O)ccc1OC (stereo not drawn)
inactive

----------
Assay: Cell Viability - Mesenchymal (AID 546);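 note: cells exposed to compound for 40 hours before reading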
Details: mesenchymal cells viability, qHTS; series mostly up to 91.7 µM
Results filed as inconclusive are left out. Activity calls are given as the source filed them. Calls come from the whole dose curve; as a rule, active = well fitted cell-killing curve with a large enough effect; inconclusive = small, poorly fitted or top-dose-only effect; inactive = flat fitted curve, though single readings scatter.
// allowed return values: Yes for active, No for inactive

Problem: Dear all, I need the recorded test outcome for O=C(O)c1cc(=O)[nH]c(=O)[nH]1 , thank you.
Result: No

Problem: Dear all, I need the recorded test outcome for CN(C)c1ccc(C(=C2C=CC(=[N+](C)C)C=C2)c2ccc(N(C)C)cc2)cc1 , thank you.
Result: Yes

Problem: Dear all, I need the recorded test outcome for CCc1cc(C(N)=S)ccn1 , thank you.
Result: No

Problem: Dear all, I need the recorded test outcome for CC(=O)[C@H]1CC[C@H]2[C@@H]3CCC4=CC(=O)CC[C@]4(C)[C@H]3CC[C@]12C , thank you.
Result: No

Problem: Dear all, I need the recorded test outcome for Cc1ncc([N+](=O)[O-])n1CCO , thank you.
Result: No

Problem: Dear all, I need the recorded test outcome for O=C(N[C@H](CO)[C@H](O)c1ccc([N+](=O)[O-])cc1)C(Cl)Cl , thank you.
Result: No

Problem: Dear all, I need the recorded test outcome for NNC(=O)c1ccncc1 , thank you.
Result: No

Problem: Dear all, I need the recorded test outcome for COc1ccc2cc3[n+](cc2c1OC)CCc1cc2c(cc1-3)OCO2 , thank you.
Result: No

Problem: Dear all, I need the recorded test outcome for Cc1noc(NS(=O)(=O)c2ccc(N)cc2)c1C , thank you.
Result: No

Problem: Dear all, I need the recorded test outcome for Cc1ccnc2c1NC(=O)c1cccnc1N2C1CC1 , thank you.
Result: No

----------
Target: Thyrotropin receptor (Homo sapiens) (UniProt P16473)
Sequence (P16473 whole entry, looked up): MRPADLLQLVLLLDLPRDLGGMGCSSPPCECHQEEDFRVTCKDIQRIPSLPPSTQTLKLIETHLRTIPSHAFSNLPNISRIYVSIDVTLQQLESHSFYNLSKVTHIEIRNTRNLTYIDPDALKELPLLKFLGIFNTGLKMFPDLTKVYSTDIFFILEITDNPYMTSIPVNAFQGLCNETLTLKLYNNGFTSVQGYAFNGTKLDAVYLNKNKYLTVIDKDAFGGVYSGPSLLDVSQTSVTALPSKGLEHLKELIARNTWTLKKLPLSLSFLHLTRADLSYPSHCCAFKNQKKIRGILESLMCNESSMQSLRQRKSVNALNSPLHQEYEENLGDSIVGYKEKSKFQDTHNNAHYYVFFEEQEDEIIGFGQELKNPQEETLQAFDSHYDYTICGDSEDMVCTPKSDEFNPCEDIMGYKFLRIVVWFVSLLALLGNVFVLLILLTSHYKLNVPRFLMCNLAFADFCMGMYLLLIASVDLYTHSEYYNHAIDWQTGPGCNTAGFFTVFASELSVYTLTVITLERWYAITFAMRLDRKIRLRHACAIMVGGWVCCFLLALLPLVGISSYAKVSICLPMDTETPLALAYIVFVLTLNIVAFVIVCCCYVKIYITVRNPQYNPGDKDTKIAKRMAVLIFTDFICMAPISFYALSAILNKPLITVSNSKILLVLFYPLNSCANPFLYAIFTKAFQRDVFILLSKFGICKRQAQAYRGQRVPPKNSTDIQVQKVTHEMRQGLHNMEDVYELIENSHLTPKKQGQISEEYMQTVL
Test: qHTS Assay for Antagonists of the Thyroid Stimulating Hormone Receptor (AID 488980);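 note: TSHR-transfected HEK293 cells stimulated with TSH at EC80 of 4 nM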
Conditions: TSHR-expressing cells, cAMP antagonist read-out; series mostly up to 57.5 µM
The source made the active and inactive calls. The call rests on the fitted dose curve; in most records, active means well fitted curve in the direction sought with a large enough effect; inconclusive means small, poorly fitted or top-dose-only effect, or another doubt; inactive means no such curve, though single readings can be large or run the other way.
assay.readout: outcome

Here is how some compounds turned out for outcome.
1) NC(=O)c1cccc(N)c1
inactive
2) CCCCS(=N)(=O)CCC(N)C(=O)O (configuration not stated)
inactive
3) CC(=O)[C@H]1CC[C@H]2[C@@H]3CCC4=CC(=O)CC[C@]4(C)[C@H]3CC[C@]12C
inactive
4) CC(C)NCC(O)c1ccc(NS(C)(=O)=O)cc1 (configuration not stated)
inactive
5) OCc1ccc(-c2nn(Cc3ccccc3)c3ccccc23)o1
inactive

Problem: Which outcome is reported for this compound? COc1cc2ncnc(Nc3cccc(Cl)c3)c2cc1OC
Result: inactive

Problem: Which outcome is reported for this compound? CCN1CCCC1CNC(=O)c1cc(S(N)(=O)=O)ccc1OC (configuration not stated)
Result: inactive

----------
Assay: Quantitative High-Throughput drug screen in 47 multiple myeloma cell lines against the NCATS MIPE library collection: XG6_PLB cell viability assay (AID 1919865); note: nearly all actives have a fitted effect of over 40% in size
Conditions: XG6 myeloma viability, CellTiter-Glo ATP luminescence, 48 h; series mostly up to 45.8 µM
Records with an inconclusive call do not appear. Activity calls are given as the source filed them. Calls follow the shape of the dose curve; as a rule, active = well fitted cell-killing curve with a large enough effect; inconclusive = small, poorly fitted or top-dose-only effect, or effect the other way; inactive = no such curve, though single readings can be large or run the other way.
// allowed return values: Yes (active), No (inactive)

Problem: Dear all, I need the recorded test outcome for CC(C)OC(=O)C(C(=O)OC(C)C)=C1SC=CS1 , thank you.
Result: No

Problem: Dear all, I need the recorded test outcome for COc1ncnc(NS(=O)(=O)c2ccc(N)cc2)c1OC , thank you.
Result: No

Problem: Dear all, I need the recorded test outcome for CC(C)(C)C(=O)OCOP(=O)(COCCn1cnc2c(N)ncnc21)OCOC(=O)C(C)(C)C , thank you.
Result: Yes

Problem: Dear all, I need the recorded test outcome for CC(C)NCC(O)c1ccc(NS(C)(=O)=O)cc1 (stereo not given) , thank you.
Result: No

Problem: Dear all, I need the recorded test outcome for C1CCC(C(CC2CCCCN2)C2CCCCC2)CC1 (stereo not given) , thank you.
Result: Yes

Problem: Dear all, I need the recorded test outcome for C[C@@H](NCCCc1cccc(C(F)(F)F)c1)c1cccc2ccccc12 , thank you.
Result: No

Problem: Dear all, I need the recorded test outcome for CCCOc1ccc(C(=O)OCCN(CC)CC)cc1N , thank you.
Result: No

Problem: Dear all, I need the recorded test outcome for CC(C)(C)NC(=O)[C@H]1CC[C@H]2[C@@H]3CC[C@H]4NC(=O)C=C[C@]4(C)[C@H]3CC[C@]12C , thank you.
Result: Yes

Problem: Dear all, I need the recorded test outcome for COc1ccc2c(c1)c(CC(=O)OCC(=O)O)c(C)n2C(=O)c1ccc(Cl)cc1 , thank you.
Result: No

Problem: Dear all, I need the recorded test outcome for O=S(=O)(O)CCS , thank you.
Result: No

Problem: Dear all, I need the recorded test outcome for CNS(=O)(=O)Cc1ccc2[nH]cc(CCN(C)C)c2c1 , thank you.
Result: No

Problem: Dear all, I need the recorded test outcome for NC(=O)c1ccc2[nH]ccc2c1 , thank you.
Result: No

Problem: Dear all, I need the recorded test outcome for COc1nc(N)nc2c1ncn2[C@@H]1O[C@H](CO)[C@@H](O)[C@@H]1O , thank you.
Result: No

Problem: Dear all, I need the recorded test outcome for N=C(N)c1ccc(OCCCCCOc2ccc(C(=N)N)cc2)cc1 , thank you.
Result: Yes

Problem: Dear all, I need the recorded test outcome for CCCc1nc(C)c2c(=O)[nH]c(-c3cc(S(=O)(=O)N4CCN(CC)CC4)ccc3OCC)nn12 , thank you.
Result: Yes

Problem: Dear all, I need the recorded test outcome for CCn1cc(C(=O)O)c(=O)c2cc(F)c(N3CCNCC3)nc21 , thank you.
Result: No

Problem: Dear all, I need the recorded test outcome for CC1=CC(=O)c2ccccc2C1=O , thank you.
Result: Yes

Problem: Dear all, I need the recorded test outcome for Oc1c(Cl)cc(Cl)c2cccnc12 , thank you.
Result: Yes

Problem: Dear all, I need the recorded test outcome for COc1ccccc1OCC(O)COC(N)=O (stereo not given) , thank you.
Result: No

Problem: Dear all, I need the recorded test outcome for O=NN(CCCl)C(=O)NC1CCCCC1 , thank you.
Result: No

Problem: Dear all, I need the recorded test outcome for CCc1c2c(nc3ccc(OC(=O)N4CCC(N5CCCCC5)CC4)cc13)-c1cc3c(c(=O)n1C2)COC(=O)[C@]3(O)CC , thank you.
Result: Yes

Problem: Dear all, I need the recorded test outcome for CC1(C)[C@H](C(=O)O)N2C(=O)C[C@H]2S1(=O)=O , thank you.
Result: No

Problem: Dear all, I need the recorded test outcome for CNC1CCCN(c2c(F)cc3c(=O)c(C(=O)O)cn(C4CC4)c3c2OC)C1 (stereo not given) , thank you.
Result: No

Problem: Dear all, I need the recorded test outcome for O=C(O)c1ccc(-n2nc(-c3ccccc3O)nc2-c2ccccc2O)cc1 , thank you.
Result: Yes

Problem: Dear all, I need the recorded test outcome for CN(C)CCc1c[nH]c2ccc(C[C@H]3COC(=O)N3)cc12 , thank you.
Result: Yes

Problem: Dear all, I need the recorded test outcome for COc1cc([C@@H]2c3cc4c(cc3[C@H](O)[C@H]3COC(=O)[C@H]23)OCO4)cc(OC)c1OC , thank you.
Result: No

Problem: Dear all, I need the recorded test outcome for CN(CCOc1ccc(CC2SC(=O)NC2=O)cc1)c1ccccn1 (stereo not given) , thank you.
Result: No

Problem: Dear all, I need the recorded test outcome for NNC(=O)c1ccncc1 , thank you.
Result: No

Problem: Dear all, I need the recorded test outcome for CC(=O)Oc1ccccc1C(=O)Nc1ncc([N+](=O)[O-])s1 , thank you.
Result: Yes

Problem: Dear all, I need the recorded test outcome for COC(=O)Nc1nc2ccc(C(=O)c3ccccc3)cc2[nH]1 , thank you.
Result: Yes

Problem: Dear all, I need the recorded test outcome for CC(C)C1CCC(C(=O)N[C@H](Cc2ccccc2)C(=O)O)CC1 (stereo not given in full) , thank you.
Result: No

Problem: Dear all, I need the recorded test outcome for C[C@@H]1CN(c2c(F)c(N)c3c(=O)c(C(=O)O)cn(C4CC4)c3c2F)C[C@H](C)N1 , thank you.
Result: No

Problem: Dear all, I need the recorded test outcome for O=c1cc(O)c(Cl)c[nH]1 , thank you.
Result: Yes

Problem: Dear all, I need the recorded test outcome for C[C@@H]1C[C@H]2[C@@H]3CCC4=CC(=O)C=C[C@]4(C)[C@@]3(Cl)[C@@H](O)C[C@]2(C)[C@@]1(OC(=O)c1ccco1)C(=O)CCl , thank you.
Result: Yes

Problem: Dear all, I need the recorded test outcome for COc1cc2c(Nc3ccc(Br)cc3F)ncnc2cc1OCC1CCN(C)CC1 , thank you.
Result: Yes

Problem: Dear all, I need the recorded test outcome for CCOCC(O)COc1ccc(NC(=O)CC[S+](C)C)cc1 (stereo not given) , thank you.
Result: No

Problem: Dear all, I need the recorded test outcome for COc1ccc(C(=O)CC(=O)c2ccc(C(C)(C)C)cc2)cc1 , thank you.
Result: Yes

Problem: Dear all, I need the recorded test outcome for OC(Cn1cncn1)(Cn1cncn1)c1ccc(F)cc1F , thank you.
Result: No

Problem: Dear all, I need the recorded test outcome for Nc1nc(=S)c2[nH]cnc2[nH]1 , thank you.
Result: Yes

Problem: Dear all, I need the recorded test outcome for CCn1cc(C(=O)O)c(=O)c2cc(F)c(N3CCNCC3)cc21 , thank you.
Result: No

Problem: Dear all, I need the recorded test outcome for Cc1nnc(NS(=O)(=O)c2ccc(N)cc2)s1 , thank you.
Result: Yes

Problem: Dear all, I need the recorded test outcome for CC(=O)[C@H]1CC[C@H]2[C@@H]3CC=C4C[C@@H](O)CC[C@]4(C)[C@H]3CC[C@]12C , thank you.
Result: No

Problem: Dear all, I need the recorded test outcome for CC1CC2C3CCC4=CC(=O)C=C[C@]4(C)[C@@]3(F)[C@@H](O)C[C@]2(C)[C@@]1(O)C(=O)CO (stereo not given in full) , thank you.
Result: No

Problem: Dear all, I need the recorded test outcome for CCN1CCCC1CNC(=O)c1cc(S(N)(=O)=O)ccc1OC (stereo not given) , thank you.
Result: No

Problem: Dear all, I need the recorded test outcome for CCOC(=O)c1ccc(OC(=O)CCCCCN=C(N)N)cc1 , thank you.
Result: No
